- Test system: UO-31 renal
- MEASUREMENT_DESCRIPTION: NCI-60 one-dose screen, 48 h (100 = growth as untreated, 0 = no growth, -100 = all killed)
- MEASUREMENT_PARAMETERS: 10 µM unless noted
The panel holds about 83,000 compounds, 20% with a hit somewhere; the sample as a whole holds those more often. The source made the active and inactive calls. Rule for the calls: active = growth percent below 10; inactive = the rest.
Please provide measured growth for the entries that follow.

Solved entries:
CC(=O)C(C(C)=O)C(c1ccccc1)C(C(C)=O)C(C)=O: 90.9% (inactive)
Cc1cc2c(-c3nc4ccccn4c3Nc3cccc4ccccc34)c(O)c(O)cc2c(O)c1-c1c(C)cc2c(-c3nc4ccccn4c3Nc3cccc4ccccc34)c(O)c(O)cc2c1O: 44% (inactive)
Cc1cc(N2CCCC2)nc(N(CCCNc2ccnc3cc(Cl)ccc23)Cc2ccc3c(c2)OCO3)n1: -24.5% (active)

# map each compound to its growth
1. COC(=O)[C@@H](C)CNS(=O)(=O)N(c1cc(C(F)(F)F)cc(C(F)(F)F)c1)C1CCN(Cc2ccc(F)cc2)CC1
2. COc1cc(CCc2cc(NC(=O)c3ccc(N4C[C@@H](C)N[C@@H](C)C4)cc3)n[nH]2)cc(OC)c1
3. O=C(Nc1ccc(N=Nc2ccccc2)cc1)c1cccc2ccccc12

Reply:
1. 44% (inactive)
2. 9.25% (active)
3. 68.3% (inactive)

Working through the 7 compounds below one at a time, give growth for each.
1. CC(C)c1ccc(/C=N/Nc2nc3ccccc3s2)cc1
2. O=c1sn(-c2cccc3ccccc23)c(=O)n1Cc1ccccc1
3. COc1ccc2c(CCCCC(c3ccccc3)c3ccccc3)c3[n+](cc2c1OC)CCc1cc2c(cc1-3)OCO2
4. CC[C@H](Nc1ncnc2nc[nH]c12)c1nc2cccc(F)c2c(=O)n1-c1ccccc1
5. C=CC(=O)Nc1cccc(Oc2nc(Nc3ccc(N4CCN(C)CC4)cc3)nc3ccsc23)c1
6. Cc1ncc(-c2ccnc(Nc3ccc(S(C)(=O)=O)cc3)n2)n1C(C)C
7. Cc1ccc(NC(=O)c2ccc(CN3CC[C@H](N(C)C)C3)c(C(F)(F)F)c2)cc1Nc1nccc(-c2cncnc2)n1

Reply:
1. 57.1% (inactive)
2. 86.3% (inactive)
3. -42.1% (active)
4. 31.3% (inactive)
5. -89.6% (active)
6. -9.24% (active)
7. -61.3% (active)

Please give growth for each item listed below.
1. C[C@@H](NC(=O)c1ncnc(N)c1Cl)c1ncc(C(=O)Nc2cc(C(F)(F)F)c(Cl)cn2)s1
2. CC1=CC2c3oc(-c4ccccc4)c(C(=O)c4ccccc4)c3CNC2C=C1 (configuration not stated)
3. CC(=O)c1c(C)c2cnc(Nc3ccc(N4CCNCC4)cn3)nc2n(C2CCCC2)c1=O
4. CCc1ccc(C2=C(O)C(=O)C(c3ccc(CC)cc3)=C(O)C2=O)cc1

Reply:
1: 52.8% (inactive); 2: 72.2% (inactive); 3: 20.2% (inactive); 4: 0.57% (active)

# batch size: 2; output growth per entry
1. CCc1nc2cc(/C=C/C(=O)NO)ccc2c(=O)n1CCc1ccc(OC)cc1
2. O=C(Nc1cn[nH]c1-c1nc2ccc(CN3CCOCC3)cc2[nH]1)NC1CC1

Reply:
["20.6% (inactive)", "-22.1% (active)"]

Dear colleague, could you send me growth for each of the items below? Thanks.
1. CCCCCCCC(=O)SCC/C=C/[C@@H]1CC(=O)NCc2cccc(n2)C2=N[C@@](C)(CS2)C(=O)N[C@@H](C(C)C)C(=O)N1
2. COC(=O)CCCNc1c(-c2c(O)c(O)cc3c(O)c(-c4c(C)cc5c(-c6nc7ccccn7c6NCCCC(=O)OC)c(O)c(O)cc5c4O)c(C)cc23)nc2ccccn12

Reply:
50.8% (inactive)
57.8% (inactive)

Each compound below has a recorded value; state its growth.
1. CS(=O)(=O)N1CCN(Cc2cc3nc(-c4cccc5[nH]ncc45)nc(N4CCOCC4)c3s2)CC1
2. Cc1ccc(NC(=O)c2ccc(CN3CCN(C)CC3)cc2)cc1Nc1nc(-c2cccnc2)cs1

Reply:
1. -14.7% (active)
2. 82.9% (inactive)

For each of the items listed, what is its growth?
1. Cc1c(N)ccc(-c2ccc(N)c(C)c2S(=O)(=O)O)c1S(=O)(=O)O
2. CCOc1cccc(/C=N/NC(=O)c2ccccc2Nc2ccnc(C(F)(F)F)c2)c1O
3. O=C1C=CC2(NN=C(c3ccccc3)N2c2ccc(Cl)cc2)c2cccc(O)c21 (configuration not stated)
4. Cc1cc(N(CCNc2ccnc3cc(Cl)ccc23)Cc2ccc3c(c2)OCO3)nc(N2CCCC2)n1
5. Cn1cnc(-c2cc3nccc(Oc4ccc(NC(=S)NC(=O)Cc5ccccc5)cc4F)c3s2)c1
6. CCc1nc2cc(/C=C/C(=O)NO)ccc2c(=O)n1CCc1ccc(F)cc1
7. Cc1nc2ccc(-n3ncc(C(=O)c4cc5ccccc5[nH]4)c3N)cc2[nH]1

Reply:
1. 88% (inactive)
2. -15.1% (active)
3. 28.2% (inactive)
4. -56.2% (active)
5. 72.2% (inactive)
6. -15.5% (active)
7. 48.9% (inactive)

Below are some compounds; for each one, tell me its growth.
1. O=c1[nH]ccc2c(S(=O)(=O)N3CCCNCC3)cccc12
2. CC(=O)c1cnc2ccc(-c3cc(Cl)c(O)c(Cl)c3)nc2c1NC1CCC(CN(C)C)CC1 (configuration not stated)
3. Cc1cc([C@@H](C)Nc2ccccc2C(=O)O)c2nc(N3CCOCC3)cc(=O)n2c1
4. CCCC(=O)OCC1OC(n2cnc3c(=S)nc[nH]c32)C(OC(=O)CCC)C1OC(=O)CCC (configuration not stated)
5. COc1cc2c(cc1OCCCN1Cc3ccc(OCCCCC(=O)N4CCC(CCN5CCCC5)CC4)cc3C1)N=C(N)C21CCCC1
6. Fc1ccc(NCc2cn(-c3ccccc3)nc2-c2ccc(OCc3ccccc3)cc2)cc1Cl
7. CCCCCCC1(/C=N/NC(N)=O)NC(=O)NC1=O (configuration not stated)

Reply:
1: 40.6% (inactive); 2: -33.1% [2.5 µM] (active); 3: 15.7% (inactive); 4: 32.6% (inactive); 5: 93.7% (inactive); 6: 75% (inactive); 7: 87.2% (inactive)
